biological target: Mtb GlgE (Mycobacterium tuberculosis, UniProt P9WQ17); experiment: GlgE-coupled enzyme assay utilizing PNP; format: biochemical
Sequence (P9WQ17 whole entry): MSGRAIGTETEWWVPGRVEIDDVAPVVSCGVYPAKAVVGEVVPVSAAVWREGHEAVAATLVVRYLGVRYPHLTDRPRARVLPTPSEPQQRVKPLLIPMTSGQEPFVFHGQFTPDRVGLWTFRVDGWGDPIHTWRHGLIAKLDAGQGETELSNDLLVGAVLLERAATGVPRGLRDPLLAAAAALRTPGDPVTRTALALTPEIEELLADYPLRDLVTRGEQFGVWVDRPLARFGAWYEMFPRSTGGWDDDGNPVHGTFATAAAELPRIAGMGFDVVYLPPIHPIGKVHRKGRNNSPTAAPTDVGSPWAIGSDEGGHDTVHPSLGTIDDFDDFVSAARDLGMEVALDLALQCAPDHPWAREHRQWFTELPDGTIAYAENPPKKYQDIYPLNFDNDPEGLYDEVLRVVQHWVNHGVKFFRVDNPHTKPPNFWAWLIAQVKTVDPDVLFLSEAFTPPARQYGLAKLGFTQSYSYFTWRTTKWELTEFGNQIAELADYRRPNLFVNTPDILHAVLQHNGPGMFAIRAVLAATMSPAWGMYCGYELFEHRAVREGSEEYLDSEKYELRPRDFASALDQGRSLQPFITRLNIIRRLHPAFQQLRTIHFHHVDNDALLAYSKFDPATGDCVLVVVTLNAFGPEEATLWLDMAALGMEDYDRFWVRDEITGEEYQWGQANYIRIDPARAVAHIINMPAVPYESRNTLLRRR
Experimental Endpoint: Ki
Number first, unit second.

Task item: Find the recorded Ki belonging to OC[C@H]1N[C@H](CO)[C@@H](O[C@H]2O[C@H](CO)[C@@H](O)[C@H](O)[C@H]2O)[C@@H]1O [Compound 9] and report it.
Reply: 237 µM

Cited source for all entries: paper PMC4201354
